Origin of values: PubChem BioAssay AID778

target: Cytochrome P450 2C19 (Homo sapiens) (UniProt P33261); assay: blockers of cytochrome P450 2C19 activity – biochemical, luminescence, ADME assay, primary screen (AID 778); settings: CYP2C19 Supersomes, luciferin-H EGE luminescence, 30 min; at 5 µM; active compounds read high;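 note: plate controls were negative control wells for no effect and 2.5 mM tranylcypromine positive control for full effect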
Sequence (P33261 whole entry, looked up): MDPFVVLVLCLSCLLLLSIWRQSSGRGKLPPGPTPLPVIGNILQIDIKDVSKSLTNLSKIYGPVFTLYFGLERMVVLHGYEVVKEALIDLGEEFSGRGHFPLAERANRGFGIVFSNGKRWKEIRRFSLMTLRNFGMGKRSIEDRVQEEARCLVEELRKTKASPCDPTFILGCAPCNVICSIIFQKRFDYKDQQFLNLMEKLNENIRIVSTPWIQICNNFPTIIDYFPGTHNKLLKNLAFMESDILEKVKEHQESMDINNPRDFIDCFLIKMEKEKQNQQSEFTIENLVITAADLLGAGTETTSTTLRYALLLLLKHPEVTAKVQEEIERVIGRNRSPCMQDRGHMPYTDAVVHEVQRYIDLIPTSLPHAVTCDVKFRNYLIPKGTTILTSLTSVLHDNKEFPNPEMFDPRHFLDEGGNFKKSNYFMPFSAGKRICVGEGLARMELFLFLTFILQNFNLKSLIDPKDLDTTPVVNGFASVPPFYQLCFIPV
Out of some 96,000 compounds screened, about 20,000 (21%) were called active. Not all results are given here.
Lab note: anything with inhibition at or over 40% counts as 1.0; the rest go in 0.0.

Completed entries (count: 3):
Clc1ccccc1SCc1nc2ccccc2[nH]1 :: 1.0
CCNC(=S)NNC(=O)Cc1ccccc1 :: 0.0
FC(F)(F)c1cccc(NC(=S)Nc2cccc(Cl)c2)c1 :: 1.0

Record FC(F)(F)c1cccc(Nc2ncnc3ccccc23)c1 ; criterion: inhibition no lower than 40%. Met?
1.0

Entry O=C(Nc1cccc(Cl)c1)OCc1ccccn1 : is its inhibition no less than 40%?
0.0
